Sequence of the target: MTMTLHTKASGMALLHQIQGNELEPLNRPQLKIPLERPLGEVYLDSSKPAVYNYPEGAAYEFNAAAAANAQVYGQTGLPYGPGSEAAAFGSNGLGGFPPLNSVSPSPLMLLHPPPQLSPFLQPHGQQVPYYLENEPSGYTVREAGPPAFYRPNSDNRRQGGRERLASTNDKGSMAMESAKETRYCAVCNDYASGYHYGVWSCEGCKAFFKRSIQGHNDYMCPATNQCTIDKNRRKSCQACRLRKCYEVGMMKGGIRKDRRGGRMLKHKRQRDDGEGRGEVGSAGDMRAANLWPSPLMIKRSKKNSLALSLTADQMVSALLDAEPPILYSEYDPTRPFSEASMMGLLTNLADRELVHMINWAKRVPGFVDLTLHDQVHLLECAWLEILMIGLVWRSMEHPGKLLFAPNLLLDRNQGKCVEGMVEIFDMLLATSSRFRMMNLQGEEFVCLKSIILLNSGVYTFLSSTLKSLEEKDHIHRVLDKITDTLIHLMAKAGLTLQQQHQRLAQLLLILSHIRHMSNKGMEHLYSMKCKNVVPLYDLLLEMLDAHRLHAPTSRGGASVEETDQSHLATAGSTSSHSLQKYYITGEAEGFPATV
pIC50: −log10 of the molar value.
// pIC50 lookup, one value per entry
property: pIC50

compound	property	observedResult
Cc1cc(Br)c2c(c1)c(=O)oc1c(C)c(O)ccc12	pIC50	5.51
Cc1cc2c(cc1Br)c(=O)oc1c(C)c(O)ccc12	pIC50	5.16
Cc1cc(C)c2c(c1)c(=O)oc1c(C)c(O)ccc12	pIC50	5.43
CCC1Oc2c(ccc(O)c2C)-c2c(C)cc(O)c(C)c21 (stereo not given)	pIC50	6.89
Cc1cc(O)c(Cl)c2c(=O)oc3c(Cl)c(O)ccc3c12	pIC50	5.60
Cc1c(O)ccc2c1oc(=O)c1c(C)ccc(C)c12	pIC50	5.51
CCc1c(O)ccc2c1c(=O)oc1c(F)c(O)ccc12	pIC50	6.64
COc1c(C)c(Br)c2c(=O)oc3c(C)c(O)ccc3c2c1C	pIC50	6.65
CCc1cc(O)cc2c(=O)oc3c(C)c(O)ccc3c12	pIC50	5.75
Cc1c(O)ccc2c1OC(C)(C)c1c-2ccc(O)c1C	pIC50	6.33
Cc1c(O)ccc2c1oc(=O)c1cc(O)ccc12	pIC50	6.18
C=CCc1cc(C)cc2c(=O)oc3c(C)c(O)ccc3c12	pIC50	5.00
Cc1cc(O)cc2c1-c1ccc(O)c(C)c1OC2CC(C)C (stereo not given)	pIC50	6.20
CCc1c(O)ccc2c1oc(=O)c1c(C)c(O)ccc12	pIC50	6.64
COc1ccc2c(c1C)c(=O)oc1c(C)c(O)ccc12	pIC50	6.00
Cc1c(O)c(Cl)cc2c1c(=O)oc1c(Cl)c(O)ccc12	pIC50	6.28
Cc1cc(O)cc2c1-c1ccc(O)c(C)c1OC2C (stereo not given)	pIC50	5.92
CCc1c(O)ccc2c1c(=O)oc1c(C)c(O)ccc12	pIC50	6.32
O=c1oc2c(Cl)c(O)ccc2c2cc(F)c(O)c(Cl)c12	pIC50	4.94
C=Cc1cc(C)cc2c(=O)oc3c(C)c(O)ccc3c12	pIC50	5.00
